Data provenance: paper PMC7587356

Recorded mean for the following compounds
- system: SARS-CoV-2 3CLpro (Severe acute respiratory syndrome coronavirus 2, UniProt P0DTD1)
- assay procedure: biochemical
- Format: biochemical
- Parameters: unit not given here
- condition info: sheet LOPAC_screen_w_protease; LOPAC1280 at 5 µM; mean of two replicates
recorded metric: mean

[[record]]
compound = "NCC(CP(=O)(O)O)c1ccc(Cl)cc1 (stereo not drawn) [Phaclofen]"
recorded_metric = "mean"
quantitative_result = 1.154

[[record]]
compound = "CCOC(=O)c1ncn2c1[C@@H]1CCCN1C(=O)c1cc(OC)ccc1-2 [L-655,708]"
recorded_metric = "mean"
quantitative_result = 1.109

[[record]]
compound = "CNC(=O)c1cc2c(cn1)[nH]c1ccccc12 [N-Methyl-beta-carboline-3-carboxamide]"
recorded_metric = "mean"
quantitative_result = 1.084

[[record]]
compound = "O=C(O)/C=C\\C(=O)O.O=C(O)/C=C\\C(=O)O.c1cc(CN2CCCCC2)cc(OCCCNc2nc3ccccc3s2)c1 [SKF 95282 dimaleate]"
recorded_metric = "mean"
quantitative_result = 0.9471

[[record]]
compound = "CNc1cc(NS(=O)(=O)c2ccc(N)cc2)nc(NC)n1.Cl.Cl [Ro 04-6790 dihydrochloride]"
recorded_metric = "mean"
quantitative_result = 0.9819

[[record]]
compound = "N#CCCN.N#CCCN.O=C(O)/C=C/C(=O)O [3-Aminopropionitrile fumarate]"
recorded_metric = "mean"
quantitative_result = 0.9446

[[record]]
compound = "CCCN1CCC[C@H](c2cccc(O)c2)C1.Cl [R(+)-3PPP hydrochloride]"
recorded_metric = "mean"
quantitative_result = 0.9121

[[record]]
compound = "N[C@H](CCC(=O)NCS(=O)(=O)O)C(=O)O [gamma-D-Glutamylaminomethylsulfonic acid]"
recorded_metric = "mean"
quantitative_result = 1.223

[[record]]
compound = "Cl.OCc1c[nH]cn1 [4-Imidazolemethanol hydrochloride]"
recorded_metric = "mean"
quantitative_result = 1.065

[[record]]
compound = "COc1cc2nc(N3CCN(C(=O)OCc4ccccc4)C(C(=O)NC(C)(C)C)C3)nc(N)c2cc1OC [L-765,314]"
recorded_metric = "mean"
quantitative_result = 1.212

[[record]]
compound = "O=C(Cc1ccc(Cl)c(Cl)c1)OCCN1CCCC1.O=C(O)C(=O)O [AC 915 oxalate]"
recorded_metric = "mean"
quantitative_result = 1.181

[[record]]
compound = "Cl.O[Si](CCCN1CCCCC1)(c1ccc(F)cc1)C1CCCCC1 (stereo not drawn)"
recorded_metric = "mean"
quantitative_result = 1.239

[[record]]
compound = "CCCN(CCc1ccccc1)C1CCc2c(O)cccc2C1.Cl (racemic) [(±)-PPHT hydrochloride]"
recorded_metric = "mean"
quantitative_result = 1.126

[[record]]
compound = "CC1(C)CCC=[N+]1[O-] [5,5-Dimethyl-1-pyrroline-N-oxide]"
recorded_metric = "mean"
quantitative_result = 1.097

[[record]]
compound = "Cl.NC1CCN(c2cccc(Cl)n2)CC1 [SR 57227A]"
recorded_metric = "mean"
quantitative_result = 1.074

[[record]]
compound = "NC(N)=NOCC[C@H](N)C(=O)O.O=S(=O)(O)O [L-Canavanine sulfate]"
recorded_metric = "mean"
quantitative_result = 1.293

[[record]]
compound = "CN1[C@@H](CC(=O)c2ccccc2)CCC[C@H]1C[C@H](O)c1ccccc1.Cl [alpha-Lobeline hydrochloride]"
recorded_metric = "mean"
quantitative_result = 1.292

[[record]]
compound = "COc1ccccc1N1CCNCC1.Cl"
recorded_metric = "mean"
quantitative_result = 0.9162

